# test_name: Pharmacokinetic profile / oral bioavailability in male SD rats
# Type: in vivo
# assay_context: rat, in vivo, PO, 50 mg/kg, 0.5% MC, read-out: % F (oral bioavailability)
endpoint_label: bioavailability (%)
Use % as the unit, but write only the number.

The reported value for `CC1=C(c2ccc(NC(=O)c3ccncc3F)cc2)CN(c2nccs2)CC1.Cl.Cl` in terms of bioavailability is 93.4

====

# test_name: Pharmacokinetic profile / oral bioavailability in male SD rats
# Type: in vivo
# assay_context: rat, plasma, PO, 50 mg/kg, 0.5% MC
endpoint_label: half-life (h)
Give the value in h but do not write h after it.

# molecule `CC1=C(c2ccc(NC(=O)c3ccncc3F)cc2)CN(c2nccs2)CC1.Cl.Cl` ; its half-life = 3.2

====

# test_name: Pharmacokinetic profile / oral bioavailability in male SD rats
# Format: in vivo
# assay_context: rat, plasma, PO, 50 mg/kg, 0.5% MC
endpoint_label: Tmax (h)
Field format: number, assumed h, no unit text.

response.value for `CC1=C(c2ccc(NC(=O)c3ccncc3F)cc2)CN(c2nccs2)CC1.Cl.Cl` (field: Tmax) = 2

====

# test_name: Pharmacokinetic profile / oral bioavailability in male SD rats
# Format: in vivo
# assay_context: rat, plasma, PO, 50 mg/kg, 0.5% MC
endpoint_label: AUC(0-t) (µM·h)
The figure you give is taken to be in µM·h; do not add the unit.

Kindly note the recorded AUC(0-t) for `CC1=C(c2ccc(NC(=O)c3ccncc3F)cc2)CN(c2nccs2)CC1.Cl.Cl` , which is 348

====

# test_name: Pharmacokinetic profile / oral bioavailability in male SD rats
# Assay type: in vivo
# assay_context: rat, plasma, IV, 5 mg/kg, DRD formulation
endpoint_label: AUC(0-inf)
Answer by giving the amount and then stating its unit.

So, `CC1=C(c2ccc(NC(=O)c3ccncc3F)cc2)CN(c2nccs2)CC1.Cl.Cl` ? Its AUC(0-inf) was 37.6 µM·h

====

# test_name: Pharmacokinetic profile / oral bioavailability in male SD rats
# Type: in vivo
# assay_context: rat, plasma, IV, 5 mg/kg, DRD formulation
endpoint_label: Cmax (µM)
Value expressed in µM; do not type the unit.

Entry `CC1=C(c2ccc(NC(=O)c3ccncc3F)cc2)CN(c2nccs2)CC1.Cl.Cl` ; Cmax = 34.6

====

# test_name: Solubility of salts (water solubility)
# Format: physicochemical
# assay_context: dihydrochloride salt
endpoint_label: solubility

Entry `CC1=C(c2ccc(NC(=O)c3ccncc3F)cc2)CN(c2nccs2)CC1.Cl.Cl` ; solubility = > 12 mg/mL
